Sourced from patent US20260209316A1

Attribute: IC50, microneutralization of GP-pseudotyped lentiviral vector on HEK293 cells
Target: T1, SUDV GP on pseudotyped lentiviral vector (Sudan virus (SUDV), UniProt Q7T9D9 33-676)
T1 sequence: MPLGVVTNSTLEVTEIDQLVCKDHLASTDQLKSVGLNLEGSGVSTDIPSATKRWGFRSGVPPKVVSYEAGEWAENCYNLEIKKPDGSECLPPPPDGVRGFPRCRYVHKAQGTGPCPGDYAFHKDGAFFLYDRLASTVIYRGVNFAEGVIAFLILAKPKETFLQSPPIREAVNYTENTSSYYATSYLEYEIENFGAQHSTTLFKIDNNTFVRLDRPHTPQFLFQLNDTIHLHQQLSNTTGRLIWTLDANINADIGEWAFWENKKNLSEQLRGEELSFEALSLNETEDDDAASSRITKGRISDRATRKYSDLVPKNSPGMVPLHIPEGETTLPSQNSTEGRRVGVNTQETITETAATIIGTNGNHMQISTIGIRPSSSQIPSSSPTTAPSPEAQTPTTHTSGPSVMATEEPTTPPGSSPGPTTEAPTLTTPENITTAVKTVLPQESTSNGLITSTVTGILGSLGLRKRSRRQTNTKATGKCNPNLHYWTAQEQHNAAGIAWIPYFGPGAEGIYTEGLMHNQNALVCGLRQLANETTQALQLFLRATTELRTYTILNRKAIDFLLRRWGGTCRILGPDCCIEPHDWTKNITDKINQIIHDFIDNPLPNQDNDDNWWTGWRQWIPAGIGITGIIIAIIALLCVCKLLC
Assay: cell-based or functional assay
Experimental endpoint: IC50, microneutralization of GP-pseudotyped lentiviral vector on HEK293 cells

>>> result("antibody 231L (antibody, V domains shown) VH: EVQLVESGGGLVQPGGSLRLSCAASAFTFDDYAMHWVRQAPGKGLEWVSGITWSGLSTYYADSVKGRFTISRDNAKNSLYLQMNSLRVEDTALYYCAKSGNNSPFSGLDSWGQGAVVTVSS VL: QSVLTQPPSVSGAPGQRVTVSCTGSSSNIGAGSYVQWYQQLPGTAPKLLIYENNKRPSGVSDRFSGSKSGTSASLTITGLQSEDEADYYCQSYDSSLNAYIFGAGTRLTVL")
"> 10 µg/mL"
>>> result("antibody 310L (antibody, V domains shown) VH: EMQLVESGGGLVQPGGSLRLSCAASGFTFDAYAMHWVRQRPGKGLEWISGIIWSGRTTYYADSVKGRFTFSRDNSKNSLYLEMNSLKPEDTALYYCAKDSWNYGVYNSLDVWGRGILVTVSS VL: QSVLTQPPSVSGAPGQRVTISCTGSSSNVGPHYVSWYQHLPGTTPKLLIFQDNKRPSGVSDRFSGSKSASSASLTITGLQTEDEADYYCLSYDSSLNVYIFGSGTRLTVL")
"> 10 µg/mL"
>>> result("antibody 206L (antibody, V domains shown) VH: EVQLVESGGGVVQPGGSLRLSCAASGFTFDDYAMHWVRQAPGKGLEWVSGISWSGGNTYYADSVKGRFTVSRENAKNSLYLQMNRLRAEDTAFYNCARTSQGGAVVFSAPNYWGQGVLVTVSS VL: QSVLTQAPSVSGAPGQRVTISCTGSSSNIGGYYVQWYQQLPGRAPKLLIYENNKRPSGVSDRFSGSRSASSASLTITGLQSEDEADYYCQSYDSRLNGYIFGGGTRLTVL")
"> 10 µg/mL"
>>> result("antibody 16F6 (antibody, V domains shown) VH: EVQLVESGGGLVTPGGSLKLSCAASGFAFNYYDMFWVRQNTEKRLEWVAYINSGGGNTYYPDTVKGRFTISRDNAKKTLFLQMSSLRSEDTAMYYCARQLYGNSFFDYWGQGTSLTVSA VL: DIVMTQSHKFMSTSVGDRVTITCKASQDVTTAVAWYQQKPGHSPKLLIYWASTRHTGVPDRFTGSGSGTDFTLTLNSVQAEDLALYYCQQHYSTPLTFGAGTKLELK")
"0.04 µg/mL"
